# reported pIC50; entries follow
Target: human PAD4 (Homo sapiens)
Construct: human PAD4 (NM_012387), A2-P663, was PCR amplified; His-SUMO (N, cleaved yes)
Test: In vitro PAD4 BAEE biochemical assay
Conditions: BAEE substrate 3 mM, 5 nM PAD4, 2 mM calcium chloride; geometric mean of multiple experiments
pIC50: −log10 of the molar value.
measured quantity: pIC50

molecule="COc1cc(C(=O)N2C[C@H](N)[C@@H]3CC[C@H]2C3)cc2nc(-c3cc4ccc5nc4n3CCCCCc3ccc(F)cc3C(=O)N[C@@H]5C)n(C)c12 [Example 899]" measured_result=7.52
molecule="COc1cc(C(=O)N2CC[C@@H](OC(F)F)[C@@H](N)C2)cc2nc(-c3cc4ccc5nc4n3CCCCCCC3(COC3)C(=O)N[C@@H]5C)n(C)c12 [Example 613]" measured_result=6.97
molecule="COc1cc(C(=O)N2[C@H]3CC[C@@H]2[C@H](N)C3)cc2nc(-c3cc4ccc5nc4n3C[C@H]3C[C@H]3CCCCC(=O)N[C@@H]5C)n(C)c12 [Example 144]" measured_result=7.51
molecule="COc1cc(C(=O)N2C[C@H](N)[C@@H]3CC[C@H]2C3)cc2nc(-c3cc4ccc5nc4n3CC(F)(F)CCCCC3(CC3)C(=O)N[C@@H]5C)n(C)c12 [Example 475]" measured_result=7.21
molecule="C[C@@H]1[C@H](N)CCCN1C(=O)c1cc(F)c2c(c1)nc(-c1cc3ccc4nc3n1CCCCC[C@]1(F)C[C@H]1C(=O)N[C@@H]4C)n2C1CC1 [Example 705]" measured_result=7.70
molecule="COc1cc(C(=O)N2CCC[C@@H](N)C2)cc2nc(-c3cc4ccc5nc4n3CCCCCCNc3ncccc3-5)n(C)c12 [Example 50]" measured_result=5.00

* * *

Listed compounds paired with reported pIC50
Biological target: human PAD4 (Homo sapiens, UniProt Q9UM07)
Construct: human PAD4 (NM_012387), A2-P663, was PCR amplified; His-SUMO (N, cleaved yes)
Sequence (Q9UM07 2-663): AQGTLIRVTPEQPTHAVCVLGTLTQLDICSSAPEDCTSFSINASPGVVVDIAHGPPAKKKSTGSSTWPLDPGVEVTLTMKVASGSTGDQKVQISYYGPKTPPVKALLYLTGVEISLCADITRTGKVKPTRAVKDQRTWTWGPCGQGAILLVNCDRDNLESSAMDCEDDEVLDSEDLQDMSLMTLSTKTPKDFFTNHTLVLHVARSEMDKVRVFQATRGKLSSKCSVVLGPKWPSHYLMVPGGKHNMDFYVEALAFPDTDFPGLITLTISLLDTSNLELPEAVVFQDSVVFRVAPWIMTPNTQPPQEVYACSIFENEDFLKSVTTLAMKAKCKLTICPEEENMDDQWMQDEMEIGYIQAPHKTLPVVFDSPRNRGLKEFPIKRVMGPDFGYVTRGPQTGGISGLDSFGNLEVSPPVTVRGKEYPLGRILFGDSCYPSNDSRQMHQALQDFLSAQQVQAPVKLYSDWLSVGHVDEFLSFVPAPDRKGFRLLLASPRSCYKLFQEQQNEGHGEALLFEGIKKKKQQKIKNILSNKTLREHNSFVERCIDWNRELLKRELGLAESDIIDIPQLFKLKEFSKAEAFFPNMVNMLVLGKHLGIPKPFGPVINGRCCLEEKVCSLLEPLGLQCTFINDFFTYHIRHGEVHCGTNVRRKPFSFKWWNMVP
Assay: In vitro PAD4 BAEE biochemical assay
Conditions: BAEE substrate 3 mM, 5 nM PAD4, 2 mM calcium chloride; geometric mean of multiple experiments
pIC50: −log10 of the molar value.
measured quantity: pIC50

structure_string=COc1cc(C(=O)N[C@H]2CNC[C@@H](C)C2)cc2nc(-c3cc4ccc5nc4n3CCCCCCC(C)(C)C(=O)N[C@@H]5C)n(C)c12 target_system="human PAD4 (Homo sapiens, UniProt Q9UM07)" measured_quantity=pIC50 measured_result=6.54
structure_string=COc1cc(C(=O)N2CC[C@@H](OC)[C@@H](N)C2)cc2nc(-c3cc4ccc5nc4n3CCCCCC[C@]3(CCCO3)C(=O)N[C@@H]5C)n(C)c12 target_system="human PAD4 (Homo sapiens, UniProt Q9UM07)" measured_quantity=pIC50 measured_result=7.36
structure_string=C[C@@H]1[C@H](N)CCCN1C(=O)c1cc(F)c2c(c1)nc(-c1cc3ccc4nc3n1CCCCCc1nc(C(F)(F)F)ccc1C(=O)N[C@@H]4C)n2C1CC1 target_system="human PAD4 (Homo sapiens, UniProt Q9UM07)" measured_quantity=pIC50 measured_result=7.31

* * *

Measured pIC50, listed per entry for reference.
Molecular target: human PAD4 (Homo sapiens)
Construct: human PAD4 (NM_012387), A2-P663, was PCR amplified; His-SUMO (N, cleaved yes)
Assay: In vitro PAD4 BAEE biochemical assay
Details: BAEE substrate 3 mM, 5 nM PAD4, 2 mM calcium chloride; geometric mean of multiple experiments
pIC50: −log10 of the molar value.
measured quantity: pIC50

molecule="COc1cc(C(=O)N2[C@H]3CC[C@@H]2[C@H](N)C3)cc2nc(-c3cc4ccc5nc4n3CCCCCCC(C)(C)C(=O)N[C@@H]5C)n(C)c12 [Example 20]" measured_quantity=pIC50 measured_result=7.21
molecule="COc1cc(C(=O)N[C@H]2CNCC[C@@H]2F)cc2nc(-c3cc4ccc5nc4n3CCCCCc3nccnc3C(=O)N[C@@H]5C)n(C)c12 [Example 241]" measured_quantity=pIC50 measured_result=7.09
molecule="COc1cc(C(=O)N2[C@H]3CC[C@@H]2[C@H](N)C3)cc2nc(-c3cc4ccc5cc4n3CCCCCCC(=O)Nc3ncccc3-5)n(C)c12 [Example 88]" measured_quantity=pIC50 measured_result=7.01
molecule="COc1cc(C(=O)N[C@H]2CNCC[C@@H]2F)cc2nc(-c3cc4ccc5nc4n3CC(F)(F)CCCc3ccccc3C(=O)N[C@@H]5C)n(C)c12 [Example 186]" measured_quantity=pIC50 measured_result=6.86

* * *

Molecular target: human PAD4 (Homo sapiens, UniProt Q9UM07)
Construct: human PAD4 (NM_012387), A2-P663, was PCR amplified; His-SUMO (N, cleaved yes)
Assay: In vitro PAD4 BAEE biochemical assay
Details: BAEE substrate 3 mM, 5 nM PAD4, 2 mM calcium chloride; geometric mean of multiple experiments
Each entry below lists one item and its recorded IC50 value.
measured quantity: IC50 (nM)

structure_string=COc1cc(C(=O)N2CCC[C@@H](N)C2)cc2nc(-c3cc4ccc5nc4n3CCCCCCC(=O)N[C@@H]5C)n(C3CC3)c12 measured_quantity=IC50 measured_result=84
structure_string=COc1cc(C(=O)N2CC[C@@H](OCC34CC(F)(C3)C4)[C@@H](N)C2)cc2nc(-c3cc4ccc5nc4n3CCCCC[C@@H]3C[C@H]3C(=O)N[C@@H]5C)n(C)c12 measured_quantity=IC50 measured_result=136
structure_string=COc1cc(C(=O)N2[C@H]3CC[C@@H]2[C@H](N)C3)cc2nc(-c3cc4ccc5nc4n3CCCCCCC(C)(C)C(=O)N[C@@H]5C)n(C3CC3)c12 measured_quantity=IC50 measured_result=103

* * *

Biological target: human PAD4 (Homo sapiens, UniProt Q9UM07)
Construct: human PAD4 (NM_012387), A2-P663, was PCR amplified; His-SUMO (N, cleaved yes)
Experiment: In vitro PAD4 BAEE biochemical assay
Details: BAEE substrate 3 mM, 5 nM PAD4, 2 mM calcium chloride; geometric mean of multiple experiments
measured quantity: IC50 (µM)

compound=COc1cc(C(=O)N2[C@H]3CC[C@@H]2[C@H](N)C3)cc2nc(-c3cc4ccc5nc4n3CCCCCCNC(=O)c3ccccc3-5)n(C)c12 unit=µM measured_result=0.075
compound=COc1cc(C(=O)N2[C@H]3CC[C@@H]2[C@H](N)C3)cc2nc(-c3cc4ccc5nc4n3C[C@H]3C[C@@H]3CCCCC(=O)N[C@@H]5C)n(C)c12 unit=µM measured_result=0.024
compound="COc1cc(C(=O)N2CCC[C@@H](N)C2)cc2nc(-c3cc4ccc5nc4n3CCC/C=C/C[C@@](C)(C(F)(F)F)C(=O)N[C@@H]5C)n(C)c12 (single isomer, unassigned)" unit=µM measured_result=0.075

* * *

Property: pIC50; scope: individual compounds
Target: human PAD4 (Homo sapiens)
Construct: human PAD4 (NM_012387), A2-P663, was PCR amplified; His-SUMO (N, cleaved yes)
Test: In vitro PAD4 BAEE biochemical assay
Settings: BAEE substrate 3 mM, 5 nM PAD4, 2 mM calcium chloride; geometric mean of multiple experiments
pIC50: −log10 of the molar value.
measured quantity: pIC50

structure_string=COc1cc(C(=O)N2CC[C@@H](OC)[C@@H](N)C2)cc2nc(-c3cc4ccc5nc4n3CCCCCc3ccnc(C4CC4)c3C(=O)N[C@@H]5C)n(C)c12 measured_quantity=pIC50 measured_result=7.15
structure_string=COc1cc(C(=O)N2CC[C@@H](OC)[C@@H](N)C2)cc2nc(-c3cc4ccc5nc4n3CCCCCCC3(CC3)C(=O)N[C@@H]5C)n(C)c12 measured_quantity=pIC50 measured_result=6.82
structure_string=COCCn1c(-c2cc3ccc4nc3n2CCCCCCC(C)(C)C(=O)N[C@@H]4C)nc2cc(C(=O)N[C@H]3CNCC[C@@H]3F)c(F)c(F)c21 measured_quantity=pIC50 measured_result=7.10
structure_string=COc1cc(C(=O)N[C@H]2CNCC[C@@H]2F)cc2nc(-c3cc4ccc5nc4n3C[C@@H]3C[C@H]3CCc3ccccc3C(=O)N[C@@H]5C)n(C)c12 measured_quantity=pIC50 measured_result=7.01

* * *

Target: human PAD4 (Homo sapiens, UniProt Q9UM07)
Construct: human PAD4 (NM_012387), A2-P663, was PCR amplified; His-SUMO (N, cleaved yes); made in house; host or cells: E. coli BL21(DE3)
Assay: In vitro PAD4 BAEE biochemical assay
Conditions: BAEE substrate 3 mM, 5 nM PAD4, 2 mM calcium chloride; geometric mean of multiple experiments
IC50 reference
measured quantity: IC50

compound="COc1cc(C(=O)N2C[C@@H]3C[C@@H]3[C@@H](N)C2)cc2nc(-c3cc4ccc5nc4n3CCCCCCC(C)(C)C(=O)N[C@@H]5C)n(C)c12 [Example 535]" target_system="human PAD4 (Homo sapiens, UniProt Q9UM07)" measured_result="384 nM"
compound=C[C@H]1NC(=O)[C@@H]2C[C@H]2CCCCCn2c(-c3nc4cc(C(=O)N5C[C@H](N)[C@@H]6CC[C@H]5C6)cnc4n3C3CC3)cc3ccc1nc32 target_system="human PAD4 (Homo sapiens, UniProt Q9UM07)" measured_result="23 nM"
compound=COc1cc(C(=O)N2[C@H]3CC[C@@H]2[C@H](N)C3)cc2nc(-c3cc4ccc5nc4n3CCCCCC[C@@H](C)C(=O)N[C@@H]5C)n(C)c12 target_system="human PAD4 (Homo sapiens, UniProt Q9UM07)" measured_result="40 nM"
compound=COCCn1c(-c2cc3ccc4nc3n2CCCCCCC(C)(C)C(=O)N[C@@H]4C)nc2cc(C(=O)N[C@H]3CNCC[C@@H]3F)c(F)cc21 target_system="human PAD4 (Homo sapiens, UniProt Q9UM07)" measured_result="62 nM"
compound=COc1cc(C(=O)N2CC[C@@H](OC(F)F)[C@@H](N)C2)cc2nc(-c3cc4ccc5nc4n3CCCCCc3ccc(Cl)nc3C(=O)N[C@@H]5C)n(C)c12 target_system="human PAD4 (Homo sapiens, UniProt Q9UM07)" measured_result="97 nM"
compound=C[C@H]1NC(=O)c2ccc(C(F)(F)F)nc2CCCCCn2c(-c3nc4cc(C(=O)N5C[C@H](N)[C@@H]6CC[C@H]5C6)cc(F)c4n3C3CC3)cc3ccc1nc32 target_system="human PAD4 (Homo sapiens, UniProt Q9UM07)" measured_result="49 nM"
compound="C[C@H]1NC(=O)[C@@H]2C[C@H]2CCCCCn2c(-c3nc4cc(C(=O)N[C@H]5CNCC[C@@H]5F)c(F)cc4n3C3C[C@@H]3C(F)F)cc3ccc1nc32 (single isomer, unassigned)" target_system="human PAD4 (Homo sapiens, UniProt Q9UM07)" measured_result="51 nM"
compound=C[C@H]1NC(=O)[C@@H]2C[C@H]2CCCC(F)(F)Cn2c(-c3nc4cc(C(=O)N5C[C@H](N)[C@@H]6CC[C@H]5C6)cc(Cl)c4n3C3CC3)cc3ccc1nc32 target_system="human PAD4 (Homo sapiens, UniProt Q9UM07)" measured_result="44 nM"
compound=COc1cc(C(=O)N2CC[C@@H](OC)[C@@H](N)C2)cc2nc(-c3cc4ccc5nc4n3CCCCCc3nc4ccsc4cc3C(=O)N[C@@H]5C)n(C)c12 target_system="human PAD4 (Homo sapiens, UniProt Q9UM07)" measured_result="35 nM"
compound=COc1cc(C(=O)N2CCC[C@@H](N)C2)cc2nc(-c3cc4ccc5nc4n3CCCCCCC(C)(C)C(=O)N[C@@H]5C)n(C)c12 target_system="human PAD4 (Homo sapiens, UniProt Q9UM07)" measured_result="67 nM"
